Biological target: T1, recombinant mouse hepcidin (SEQ ID NO: 80) (mouse, not fully specified)
T1 construct: also called murine hepcidin
T1 peptide: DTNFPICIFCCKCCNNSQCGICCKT
Assay: BIAcore solution equilibrium: fixed antibody incubated with varied hepcidin, free antibody read on immobilized hepcidin chip
REPORTED_METRIC: Kd (nM)
The reply should contain only the number, in nM.

{"columns": ["BINDER", "OUTPUT_UNIT", "NUMBER"],
 "data": [
  ["rat anti-human hepcidin monoclonal antibody R9 (antibody, V domains shown, Rat hybridoma monoclonal; also called mAb R9) VH: QVTLKESGPGILQPSQTLSLTCSFSGFSLSTSGICVSWIRQPSGKGLEWLATICWEDSKGYNPSLKNRLTISKDTSNNQAFLKITSVDTADTAIYYCARPLNYGGYSELELDYWGQGVMVTVSS VL: DIQMTQSPSLLSASVGDRVTLSCKASQNIYKYLNWYQQKLGEAPKLLIYYTNSLQTGIPSRFSGSGSGTDFTLTISSLQPEDVATYYCYQYNSGPTFGAGTKLELK", "nM", 20]
]}

Enquiry: Returns the measured Kd for the input binder. Input: murine anti-human hepcidin monoclonal antibody Ab43 (antibody, V domains shown, Mouse hybridoma monoclonal; also called mAB 43) VH: QIQLVQSGPELKKPGETVKISCKASGYTFTTYGMSWVKQAPGKGLKWMGWINTYSGVPTYADDFKGRFAFSLETSASTAYLQINNLKNEDTATYFCASLWYYGRAFDYWGQGTTLTVSS VL: NIVLTQSPASLAVSLGQRATISCRASESVDSYGNSFMHWYQQKPGQPPKLLIYLASNLESGVPARFSGSGSRTDFTLTIDPVEADDAATYYCQQNNEDRTFGGGTKLEIK
Return: 14

Enquiry: Returns the measured Kd for the input binder. Input: murine anti-human hepcidin monoclonal antibody 2.41 (antibody, V domains shown, Mouse hybridoma monoclonal) VH: QIQLVQSGPELKKPGETVKISCKASGYTFTTYGMSWVKQAPGKGLKWMGWINTSSGVPTYADDFMGRFAFSLETSASTAYLQINNLKNEDTATYFCARDRYYGEVAYWGQGTLVTVSA VL: DIVLTQSPASLAVSLGQRATISCRASESVDSFGNSFMHWYQLKPGQPPKLLIYRASNLESGIPARFSGSGSRTDFTLTINPVEADDVAIYYCQQSNEEYTFGGGTKLEIK
Return: 30

Enquiry: Returns the measured Kd for the input binder. Input: murine anti-human hepcidin monoclonal antibody 2.7 (antibody, V domains shown, Mouse hybridoma monoclonal; Murine IgG1 was used as its isotypic control; also called Ab2.7; Ab 2.7) VH: QIQLVQSGPELKKPGETVKISCKASGYTFTTYGMSWVKQAPGKGLKWMGWINTYSGVPTYADDFKGRFAFSLETSASTAYLQINNLKNEDTATYFCGRDHYYGEVAYWGQGTLVTVSA VL: DIVLTQSPASLAVSLGQRATISCRASESVDSYGNSFMHWYQQKPGQPPKLLIYRASNLESGIPARFSGSGSRTDFTLTINPVEADDVATYYCHQSNEEYTFGGGTKLEIK
Return: 40
